Ki values by entry
target: Coagulation factor VII/tissue factor (Homo sapiens); assay: Binding affinity to factor7a/TF complex
Sequence (P08709 61-212 limits assumed): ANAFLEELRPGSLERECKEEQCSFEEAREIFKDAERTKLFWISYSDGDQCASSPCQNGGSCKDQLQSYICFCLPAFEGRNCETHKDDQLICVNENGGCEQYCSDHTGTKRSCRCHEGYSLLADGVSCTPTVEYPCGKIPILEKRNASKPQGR
Sequence (P08709 213-466 limits assumed): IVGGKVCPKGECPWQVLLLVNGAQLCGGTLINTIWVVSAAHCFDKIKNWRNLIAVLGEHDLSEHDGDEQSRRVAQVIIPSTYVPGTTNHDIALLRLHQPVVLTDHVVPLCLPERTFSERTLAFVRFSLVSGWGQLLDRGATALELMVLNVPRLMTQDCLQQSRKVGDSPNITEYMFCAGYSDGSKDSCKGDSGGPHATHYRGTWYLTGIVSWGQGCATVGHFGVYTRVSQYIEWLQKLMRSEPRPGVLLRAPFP
Sequence (P13726 33-295 partner limits assumed): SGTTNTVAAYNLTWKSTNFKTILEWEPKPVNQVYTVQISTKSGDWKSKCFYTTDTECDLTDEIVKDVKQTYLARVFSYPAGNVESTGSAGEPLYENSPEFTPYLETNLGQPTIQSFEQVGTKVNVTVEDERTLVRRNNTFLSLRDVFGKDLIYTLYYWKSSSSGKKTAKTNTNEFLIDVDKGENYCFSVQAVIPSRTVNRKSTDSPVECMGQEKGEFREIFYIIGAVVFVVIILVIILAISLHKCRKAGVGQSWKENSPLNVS

N=C(N)c1ccc2[nH]c(-c3cc(C(CC(=O)O)C(=O)O)cc(-c4cccc([N+](=O)[O-])c4)c3O)cc2c1 (stereo not given) :: 1 nM

Input line: # input compound: N=C(N)c1ccc2[nH]c(-c3cc(C(CC(=O)O)C(=O)O)cc(-c4cccc([N+](=O)[O-])c4)c3O)nc2c1 (stereo not given) ; wanted: its Ki
Output line: 22 nM

Input line: # input compound: N=C(N)c1ccc2nc(-c3cc(C(CCC(=O)O)C(=O)O)cc(-c4cccc([N+](=O)[O-])c4)c3O)[nH]c2c1 (stereo not given) ; wanted: its Ki
Output line: 17 nM

Input line: # input compound: N=C(N)c1ccc2nc(-c3cc(CC(C(=O)O)C(=O)O)cc(-c4cccc([N+](=O)[O-])c4)c3O)[nH]c2c1 ; wanted: its Ki
Output line: 21 nM

Input line: # input compound: N=C(N)c1ccc2[nH]c(-c3cc(C(CC(=O)O)CC(=O)O)cc(-c4cccc([N+](=O)[O-])c4)c3O)cc2c1 ; wanted: its Ki
Output line: 13 nM

Input line: # input compound: N=C(N)c1ccc2nc(-c3cc(CC(=O)O)cc(-c4cccc([N+](=O)[O-])c4)c3O)[nH]c2c1 ; wanted: its Ki
Output line: 15 nM
